- MEASURED TARGET: T1, human GPVI-1A extracellular domain fused at its C-terminus to human IgG1 Fc (GPVI-Fc) (human)
- T1 construct: also called hGPVI-1a; hGPVI
- T1 sequence (chain, as listed by the source limits assumed): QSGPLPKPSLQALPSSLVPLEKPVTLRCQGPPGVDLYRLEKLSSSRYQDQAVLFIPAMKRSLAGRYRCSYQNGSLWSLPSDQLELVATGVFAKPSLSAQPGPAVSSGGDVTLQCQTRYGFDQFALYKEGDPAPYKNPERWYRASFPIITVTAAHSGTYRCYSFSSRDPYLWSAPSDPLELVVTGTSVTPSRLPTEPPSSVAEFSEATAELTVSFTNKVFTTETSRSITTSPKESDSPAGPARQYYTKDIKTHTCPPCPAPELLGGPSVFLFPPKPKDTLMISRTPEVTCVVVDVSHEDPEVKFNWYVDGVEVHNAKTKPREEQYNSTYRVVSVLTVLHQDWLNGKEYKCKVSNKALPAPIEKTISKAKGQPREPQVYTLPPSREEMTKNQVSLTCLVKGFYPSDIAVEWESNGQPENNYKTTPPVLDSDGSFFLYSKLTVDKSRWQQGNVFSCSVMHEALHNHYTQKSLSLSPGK
- EXPERIMENT SUMMARY: ELISA, coated GPVI-Fc, Fab titrated
ENDPOINT: EC50 (nM)
Write down the numeric answer in nM and omit the unit.

Before answering, review these 2 worked examples.
Fab #4 comprising a modified heavy chain constant region (Fab, V domains shown, Human Fab from the Ylanthia library; produced in HKB11 cells; also called Fab #4 mod; HC) VH: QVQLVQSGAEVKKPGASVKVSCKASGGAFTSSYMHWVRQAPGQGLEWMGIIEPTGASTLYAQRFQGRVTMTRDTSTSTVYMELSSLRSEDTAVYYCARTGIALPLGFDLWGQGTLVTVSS VL: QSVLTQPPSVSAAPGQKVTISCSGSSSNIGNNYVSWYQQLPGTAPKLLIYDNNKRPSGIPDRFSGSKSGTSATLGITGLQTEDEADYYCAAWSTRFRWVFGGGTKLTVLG : 0.41
Fab #1 comprising a modified heavy chain constant region (Fab, V domains shown, Human Fab from the Ylanthia library; produced in HKB11 cells; also called Fab #1 mod; HC) VH: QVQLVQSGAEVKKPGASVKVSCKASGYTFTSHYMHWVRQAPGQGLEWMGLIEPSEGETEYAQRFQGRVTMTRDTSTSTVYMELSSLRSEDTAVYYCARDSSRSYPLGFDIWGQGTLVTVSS VL: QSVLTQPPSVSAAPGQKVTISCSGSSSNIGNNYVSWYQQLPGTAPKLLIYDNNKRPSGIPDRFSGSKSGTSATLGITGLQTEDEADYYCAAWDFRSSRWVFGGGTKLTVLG : 0.46

Now, please, on to the next binder.
Entry Fab #3 comprising a modified heavy chain constant region (Fab, V domains shown, Human Fab from the Ylanthia library; produced in HKB11 cells; also called Fab #3 mod; HC) VH: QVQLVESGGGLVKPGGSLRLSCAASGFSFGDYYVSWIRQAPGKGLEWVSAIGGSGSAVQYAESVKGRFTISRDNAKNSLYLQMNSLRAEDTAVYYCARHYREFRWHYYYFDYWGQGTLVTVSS VL: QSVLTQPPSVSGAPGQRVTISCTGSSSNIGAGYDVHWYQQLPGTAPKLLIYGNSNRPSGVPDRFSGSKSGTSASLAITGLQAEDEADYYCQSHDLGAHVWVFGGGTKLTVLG has what EC50?
0.35
